Hi there, I'd appreciate the recorded log D (1-octanol / PBS pH 7.4) for every entry that follows.
# ASSAY COMMENT: shake flask in triplicate (rotator; centrifuged); both phases by HPLC-MS/MS; mebendazole reference
# EXPERIMENTAL CONDITIONS: PBS pH 7.4, mutually saturated, not stated C, DMSO stock (small aliquot)
*1 amine or outer side, *2 acyl side, *3 side chain or, on linkers, in order; H or OH if unused. Where a SMILES comes first, the peptide text is derived from it. [ ]: non-standard residue; d: D form. Arg(ω,ω'-(C6H13OCO)2) = CCCCCCOC(=O)N=C(NCCC[C@H](N)C(=O)O)NC(=O)OCCCCCC; X1 = CCCCCCOC(=O)N=C(NCCC[C@@H](N[*:1])C(=O)[*:2])NC(=O)OCCCCCC; NMeV = CN[C@H](C(=O)O)C(C)C; dNMeA = CN[C@H](C)C(=O)O

log D (1-octanol / PBS pH 7.4) measured on "CCCCCCOC(=O)N=C(NCCC[C@@H]1NC(=O)[C@H](C(C)C)N(C)C(=O)[C@@H](Cc2ccccc2)NC(=O)[C@H](CC(=O)O)NC(=O)CNC1=O)NC(=O)OCCCCCC" = 3.95 log units

The recorded log D (1-octanol / PBS pH 7.4) for CCCCCCOC(=O)N=C(NCCC[C@H]1NC(=O)[C@H](C(C)C)N(C)C(=O)[C@@H](C)N(C)C(=O)[C@@H](C)NC(=O)[C@@H](CC(=O)OC)NC(=O)CNC1=O)NC(=O)OCCCCCC (cyclo(G[dD](OMe)[dA][dNMeA][NMeV][X1])) is >4.5 log units

Recorded log D (1-octanol / PBS pH 7.4) (compound CCCCCCOC(=O)N=C(NCCC[C@@H]1NC(=O)[C@H](CC(C)C)NC(=O)CNC(=O)[C@@H]2CCCN2C(=O)[C@@H]2CCCN2C(=O)[C@H](CC(C)C)NC(=O)[C@H](CC(=O)O)NC(=O)CNC1=O)NC(=O)OCCCCCC (cyclo(LPPGL[Arg(ω,ω'-(C6H13OCO)2)]GD)) ): >4.5 log units

# log D (1-octanol / PBS pH 7.4) of CC(C)C[C@@H]1NC(=O)CNC(=O)[C@@H]2CCCN2C(=O)[C@@H]2CCCN2C(=O)[C@H](CC(C)C)NC(=O)[C@H](CC(=O)O)NC(=O)CNC(=O)[C@H](CCCNC(=N)N)NC1=O (cyclo(RGDLPPGL)) = <−1 log units

FYI, the data here is from patent US20220016218A1.
